Tested on: Mus musculus
Assay: Antinociceptive activity in icv dosed ICR mouse by tail flick assay
Format: functional
Please provide measured ED50 for the entries that follow.
Write the quantity with the unit trailing the number.

Give ED50 for each listed item.
1. CN1C(=O)[C@H](NC(=O)Nc2cccc(OCCNC(=O)COCC(=O)NCCCCCCNC(=O)COCC(=O)N[C@H]3CC[C@@]4(O)[C@H]5Cc6cc(O)cc7c6[C@@]4(CCN5C)[C@H]3O7)c2)N=C(c2ccccc2)c2ccccc21
2. CN1C(=O)[C@H](NC(=O)Nc2cccc(OCCNC(=O)COCC(=O)NCCNC(=O)COCC(=O)N[C@H]3CC[C@@]4(O)[C@H]5Cc6cc(O)cc7c6[C@@]4(CCN5C)[C@H]3O7)c2)N=C(c2ccccc2)c2ccccc21

A.
1. 2020 pmol
2. 390 pmol
